Every entry's value here was drawn from patent US7345009B2.

Assay: logP determination by reversed-phase HPLC (EEC directive 79/831 Annex V.A8), pH 2.3
Type: physicochemical
Settings: reversed-phase HPLC column (C18), HPLC C18, 43° C., Preparation Examples
Parameter: chromatographic logP
Write the number on its own, no unit after it.

Reported chromatographic logP for Cn1nnc(C2CNN=C2c2ccc(Cl)cc2)n1 (centres unmarked) was 1.67

Reported chromatographic logP for Cn1nnc(CC(=O)c2ccc(Cl)cc2)n1 was 2.03

Reported chromatographic logP for Cc1nnn(C2CNN=C2c2ccc(Cl)cc2)n1 (centres unmarked) was 2.11

Reported chromatographic logP for Cc1nnn(C2CN(C(=O)Nc3ccc(OC(F)(F)F)cc3)N=C2c2ccc(Cl)cc2)n1 (centres unmarked) [Example 1] was 4

Reported chromatographic logP for Cc1nnc(C2CN(C(=O)Nc3ccc(OC(F)(F)F)cc3)N=C2c2ccc(Cl)cc2)s1 (centres unmarked) [Example 4] was 3.77

Reported chromatographic logP for Cc1nnn(C2CN(C(=O)N(CC#N)c3ccc(OC(F)(F)F)cc3)N=C2c2ccc(Cl)cc2)n1 (centres unmarked) [Example 2] was 3.68

Reported chromatographic logP for O=C(Cc1nn[nH]n1)c1ccc(Cl)cc1 [2-tetrazol-5-yl-4′-chloroacetophenone] was 1.44

Reported chromatographic logP for Cc1nnnn1CC(=O)c1ccc(Cl)cc1 was 1.81

Reported chromatographic logP for Cc1nnc(C2CNN=C2c2ccc(Cl)cc2)s1 (centres unmarked) was 1.77

Reported chromatographic logP for Cc1nnn(CC(=O)c2ccc(Cl)cc2)n1 was 2.14

Reported chromatographic logP for Cn1nnnc1CC(=O)c1ccc(Cl)cc1 was 1.78
